- Protocol: Half life in rat
- Type: ADME
- Stated Conditions: in vivo
Recorded Metric: half-life (h)
Field: numeric (h). Do not append units.

half-life measured on C[C@@H]1Cc2ccccc2N1C(=O)Cc1nc(N2CCOCC2)cc(=O)[nH]1 = 6.9

* * *

- Measurement Target: Phosphatidylinositol 4,5-bisphosphate 3-kinase catalytic subunit beta isoform (Homo sapiens, UniProt P42338)
- Sequence (P42338 whole entry, canonical isoform): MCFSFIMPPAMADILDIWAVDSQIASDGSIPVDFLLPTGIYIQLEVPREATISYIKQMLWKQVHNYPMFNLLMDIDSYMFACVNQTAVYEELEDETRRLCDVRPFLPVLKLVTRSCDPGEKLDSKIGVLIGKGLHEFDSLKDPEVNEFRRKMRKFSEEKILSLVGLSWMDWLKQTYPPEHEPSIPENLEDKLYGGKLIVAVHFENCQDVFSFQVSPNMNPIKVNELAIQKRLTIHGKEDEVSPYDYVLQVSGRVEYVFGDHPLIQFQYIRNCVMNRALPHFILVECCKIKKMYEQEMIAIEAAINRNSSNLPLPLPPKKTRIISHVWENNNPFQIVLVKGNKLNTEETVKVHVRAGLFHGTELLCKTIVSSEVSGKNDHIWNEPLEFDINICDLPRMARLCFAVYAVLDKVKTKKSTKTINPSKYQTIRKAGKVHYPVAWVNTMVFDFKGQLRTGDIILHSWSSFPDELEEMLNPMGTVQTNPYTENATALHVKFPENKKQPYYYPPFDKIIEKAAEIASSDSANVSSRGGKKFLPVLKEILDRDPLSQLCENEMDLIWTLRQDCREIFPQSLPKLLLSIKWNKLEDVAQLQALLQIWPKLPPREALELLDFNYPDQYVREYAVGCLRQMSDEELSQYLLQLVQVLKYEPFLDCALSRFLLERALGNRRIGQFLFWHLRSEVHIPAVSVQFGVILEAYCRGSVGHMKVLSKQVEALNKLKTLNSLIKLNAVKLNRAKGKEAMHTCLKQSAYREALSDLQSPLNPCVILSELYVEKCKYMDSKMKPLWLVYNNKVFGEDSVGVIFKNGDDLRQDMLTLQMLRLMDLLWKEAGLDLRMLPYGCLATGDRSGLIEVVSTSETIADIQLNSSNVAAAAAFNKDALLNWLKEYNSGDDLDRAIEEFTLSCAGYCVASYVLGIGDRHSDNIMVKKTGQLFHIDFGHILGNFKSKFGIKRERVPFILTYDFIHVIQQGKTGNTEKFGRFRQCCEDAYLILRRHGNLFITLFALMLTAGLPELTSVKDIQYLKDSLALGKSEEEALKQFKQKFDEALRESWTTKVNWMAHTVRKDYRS
Property: pIC50; scope: individual compounds
# pIC50 is unitless: minus log10 of the molar concentration; print number only

COc1ccc(C(=O)NNC(=O)c2cc3nc(-c4cnc(N)nc4)nc(N4CCOCC4)c3s2)cc1; 7.26

Next:
pIC50 measured on O=C1NC(=O)/C(=C/c2ccc3nccc(-c4ccncc4)c3c2)S1 = 9.22
